Where these numbers come from: patent US20260216326A1

Exercise: state measured pKd for each of the binders provided.
- target system: T1, human TL1A (Fitzgerald #30R-AT070) (human, UniProt O95150 72-251, limits assumed)
- T1 construct: Coated on the ELISA plate at 1 ug/mL; also called TNFSF15
- T1 sequence (looked up): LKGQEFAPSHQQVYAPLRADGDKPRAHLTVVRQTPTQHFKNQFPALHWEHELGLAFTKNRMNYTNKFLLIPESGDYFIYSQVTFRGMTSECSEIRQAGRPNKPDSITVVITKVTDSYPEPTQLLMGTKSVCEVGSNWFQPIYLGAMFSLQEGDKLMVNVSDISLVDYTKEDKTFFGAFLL
- assay: ELISA titration, coated human TL1A, culture supernatant
// pKd: -log10(molar conc.)

Given the binder A37 (antibody, human IgG1, V domains shown, human IgG1/kappa (pFuse vectors), culture supernatant) VH: QVQLVQSGAEVKKPGASVKVSCKASGFDIQDTYMHWVKQRPGQGLEWMGRIDPASGHTKYDPKFQVRATITTDTSTSTAYLELSSLRSEDTAVYYCARSGGLPDVWGQGTTVTVSS VL: EIVLTQSPGTLSASPGERATMSCRASSSVSYMYWYQQKPGQAPRPWIYATSNLASGVPDRFSGSGSGTDYTLTISRVEPEDFAVYYCQQWSGNPRTFGGGTKLEIK , what is its reported pKd?
10.47

Item A129 (antibody, human IgG1, V domains shown, human IgG1/kappa (pFuse vectors), culture supernatant) VH: QVQLVQSGAEVKKPGASVKVSCKASGFDIQDTYMHWVRQRPGQGLEWMGRIDPASGHTKYDPKFQVRVTITTDTSTSTAYLELSSLRSEDTAVYYCARSGGLPDVWGQGTTVTVSS VL: EIVLTQSPGTLSLSPGERATLSCRASSSVSYMYWYQQKPGQAPRLLIYATSNLASGIPDRFSGSGSGTDFTLTISRLEPEDFAVYYCQQWKGNPRTFGGGTKLEIK has what recorded pKd?
10.00
